System: OVCAR-4
Quantity name: GI50 (µM)

In [3]: df
Out[3]:
                                   compound   system   u  measured_number
0  COc1ccc(Nc2ncccc2C(=O)NCc2cn(Cc3cccc(Oc4ccccc4)c3)nn2)cc1 [Compound 1e]  OVCAR-4  µM             5.42
1  O=C(NCc1cn(Cc2cccc(Oc3ccccc3)c2)nn1)c1cccnc1Nc1ccc(F)cc1 [Compound 1b]  OVCAR-4  µM             5.19
2  O=C(NCc1cn(Cc2cccc(Oc3ccccc3)c2)nn1)c1cccnc1Nc1ccccc1 [Compound 1a]  OVCAR-4  µM             23.4
3  COc1cc(Nc2ncccc2C(=O)NCc2cn(Cc3cccc(Oc4ccccc4)c3)nn2)cc(OC)c1 [Compound 1i]  OVCAR-4  µM             5.42
4  COc1ccc(Nc2ncccc2C(=O)NCc2cn(Cc3cccc(Oc4ccccc4)c3)nn2)c(OC)c1 [Compound 1g]  OVCAR-4  µM             5.11
5  O=C(NCc1cn(Cc2cccc(Oc3ccccc3)c2)nn1)c1cccnc1NCc1ccc(Cl)cc1 [Compound 1k]  OVCAR-4  µM             3.37

* * *

Tested on: UACC-257
GI50 overview
Quantity name: GI50 (µM)

>>> df
                              smiles_string  measured_number
0  O=C(NCc1cn(Cc2cccc(Oc3ccccc3)c2)nn1)c1cccnc1Nc1ccccc1             1.42
1  O=C(NCc1cn(Cc2cccc(Oc3ccccc3)c2)nn1)c1cccnc1Nc1ccc(F)cc1             6.87
2  O=C(NCc1cn(Cc2cccc(Oc3ccccc3)c2)nn1)c1cccnc1NCc1ccc(Cl)cc1             3.83
3  COc1cc(Nc2ncccc2C(=O)NCc2cn(Cc3cccc(Oc4ccccc4)c3)nn2)cc(OC)c1             4.86
4  COc1ccc(Nc2ncccc2C(=O)NCc2cn(Cc3cccc(Oc4ccccc4)c3)nn2)cc1             4.82

* * *

The listing below reports GI50 for compounds tested on NCI-H460.
Quantity name: GI50

                                   compound  quantity_name   result
0  O=C(NCc1cn(Cc2cccc(Oc3ccccc3)c2)nn1)c1cccnc1NCc1ccc(Cl)cc1 [Compound 1k]           GI50  2.85 µM
1  O=C(NCc1cn(Cc2cccc(Oc3ccccc3)c2)nn1)c1cccnc1Nc1ccccc1 [Compound 1a]           GI50  2.85 µM
2  COc1ccc(Nc2ncccc2C(=O)NCc2cn(Cc3cccc(Oc4ccccc4)c3)nn2)cc1 [Compound 1e]           GI50  3.52 µM
3  COc1cc(Nc2ncccc2C(=O)NCc2cn(Cc3cccc(Oc4ccccc4)c3)nn2)cc(OC)c1 [Compound 1i]           GI50  3.98 µM
4  O=C(NCc1cn(Cc2cccc(Oc3ccccc3)c2)nn1)c1cccnc1Nc1ccc(F)cc1 [Compound 1b]           GI50  5.25 µM
5  COc1ccc(Nc2ncccc2C(=O)NCc2cn(Cc3cccc(Oc4ccccc4)c3)nn2)c(OC)c1 [Compound 1g]           GI50  3.05 µM

* * *

The listing below reports GI50 for compounds tested on HS 578T.
Quantity name: GI50

>>> print(df.to_string())
                              smiles_string   result
0  COc1ccc(Nc2ncccc2C(=O)NCc2cn(Cc3cccc(Oc4ccccc4)c3)nn2)c(OC)c1  2.94 µM
1  O=C(NCc1cn(Cc2cccc(Oc3ccccc3)c2)nn1)c1cccnc1NCc1ccc(Cl)cc1  2.72 µM
2  O=C(NCc1cn(Cc2cccc(Oc3ccccc3)c2)nn1)c1cccnc1Nc1ccc(F)cc1   5.9 µM
3  O=C(NCc1cn(Cc2cccc(Oc3ccccc3)c2)nn1)c1cccnc1Nc1ccccc1  30.9 µM
